# Test Target: SMARCA2 (Homo sapiens)
# Construct: endogenous in cells; host or cells: HT1080 (CRISPR HiBiT knock-in clone, generated in house)
# Method: SMARCA2 HiBiT degradation assay (cellular)
# Format: cell-based
# Run Parameters: A549, 6 h incubation; Emax = amount of residual protein remaining in the cell following compound treatment; table head names A549
Metric: Emax (%)
Numbers only here, please. The scale is %.

The measured Emax associated with Nc1nnc(-c2ccccc2O)cc1N1CC2CCC(C1)N2c1cccc(CC2CCN(C(=O)C3CCN(c4ccc5c(c4)C(=O)N(C4CCC(=O)NC4=O)C5=O)CC3)CC2)c1 (racemic) reads 42

Entry under test: Nc1nnc(-c2ccccc2O)cc1N1CC2CCC(C1)N2c1cccc(OC2CCN(C(=O)C3CCN(c4ccc5c(c4)C(=O)N(C4CCC(=O)NC4=O)C5=O)CC3)CC2)c1 (racemic) . Its Emax was 35

Query Nc1nnc(-c2ccccc2O)cc1OC1CCCN(c2ccc(N3CCN(C(=O)CCCCCCCCn4cc(CNc5cccc6c5C(=O)N(C5CCC(=O)NC5=O)C6=O)nn4)CC3)cc2)C1 (centres unmarked) yields Emax of 50

Emax measured on Nc1nnc(-c2ccccc2O)cc1N1CCC(CNC(=O)C2CCN(c3ccc4c(c3)C(=O)N(C3CCC(=O)NC3=O)C4=O)CC2)(c2ccccc2)CC1 (centres unmarked) = 46

Entry Nc1nnc(-c2ccccc2O)cc1N1CCC(NC(=O)CCCN2CCC(c3ccc(OC4CCC(=O)NC4=O)cc3)CC2)(c2ccccc2)CC1 (centres unmarked) — recorded Emax = 54

====

# Test Target: SMARCA2 (Homo sapiens, UniProt P51531)
# Construct: endogenous in cells; host or cells: HT1080 (CRISPR HiBiT knock-in clone, generated in house)
# Sequence (P51531 whole entry): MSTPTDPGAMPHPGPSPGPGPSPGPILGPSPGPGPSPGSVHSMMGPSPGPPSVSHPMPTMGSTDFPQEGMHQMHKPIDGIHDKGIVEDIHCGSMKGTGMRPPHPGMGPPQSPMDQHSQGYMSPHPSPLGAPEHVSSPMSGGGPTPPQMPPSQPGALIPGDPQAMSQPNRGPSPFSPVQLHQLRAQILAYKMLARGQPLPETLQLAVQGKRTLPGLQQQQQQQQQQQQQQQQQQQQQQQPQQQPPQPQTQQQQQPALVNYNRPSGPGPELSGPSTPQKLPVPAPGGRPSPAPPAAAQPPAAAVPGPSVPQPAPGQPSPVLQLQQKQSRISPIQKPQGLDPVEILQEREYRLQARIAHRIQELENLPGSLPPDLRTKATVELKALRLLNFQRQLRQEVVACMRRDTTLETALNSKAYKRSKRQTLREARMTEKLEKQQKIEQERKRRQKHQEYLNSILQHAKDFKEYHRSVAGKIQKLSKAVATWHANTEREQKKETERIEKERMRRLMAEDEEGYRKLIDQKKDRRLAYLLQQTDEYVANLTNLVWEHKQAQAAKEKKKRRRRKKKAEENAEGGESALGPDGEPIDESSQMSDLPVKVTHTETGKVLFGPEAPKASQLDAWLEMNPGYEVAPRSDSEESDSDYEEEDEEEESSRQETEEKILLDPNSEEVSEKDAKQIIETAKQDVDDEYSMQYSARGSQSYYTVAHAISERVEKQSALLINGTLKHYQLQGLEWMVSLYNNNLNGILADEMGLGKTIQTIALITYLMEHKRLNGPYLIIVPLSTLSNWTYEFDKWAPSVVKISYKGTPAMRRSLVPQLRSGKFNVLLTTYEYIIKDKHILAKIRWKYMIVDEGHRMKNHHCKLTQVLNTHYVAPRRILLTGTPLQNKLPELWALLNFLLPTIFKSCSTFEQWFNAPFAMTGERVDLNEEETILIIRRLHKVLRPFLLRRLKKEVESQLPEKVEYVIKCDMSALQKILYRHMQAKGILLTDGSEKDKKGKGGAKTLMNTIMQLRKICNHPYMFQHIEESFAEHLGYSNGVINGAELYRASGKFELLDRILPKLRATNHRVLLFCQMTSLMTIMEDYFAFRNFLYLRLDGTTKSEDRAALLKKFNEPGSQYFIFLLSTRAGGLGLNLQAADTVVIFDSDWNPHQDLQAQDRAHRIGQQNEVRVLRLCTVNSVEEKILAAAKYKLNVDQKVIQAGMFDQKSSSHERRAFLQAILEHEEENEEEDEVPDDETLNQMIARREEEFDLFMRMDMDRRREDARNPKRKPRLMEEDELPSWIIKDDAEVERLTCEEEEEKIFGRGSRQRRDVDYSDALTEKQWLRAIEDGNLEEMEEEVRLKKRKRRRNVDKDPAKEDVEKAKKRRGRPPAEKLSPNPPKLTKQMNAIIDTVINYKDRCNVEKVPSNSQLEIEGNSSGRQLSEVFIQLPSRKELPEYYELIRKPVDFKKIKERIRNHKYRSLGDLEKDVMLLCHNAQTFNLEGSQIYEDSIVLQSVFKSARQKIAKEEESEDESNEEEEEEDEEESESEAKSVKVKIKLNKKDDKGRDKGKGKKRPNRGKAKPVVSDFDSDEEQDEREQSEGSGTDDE
# Method: SMARCA2 HiBiT degradation assay (cellular)
# Format: cell-based
# Run Parameters: 6 h incubation; HiBiT-tagged SMARCA2, luminescence read-out; table head names A549; read-out: HiBit A549 SMARCA2 IP (nM) 6 h
Metric: DC50 (nM)
Unit nM implied. Number only.

Please fill in: DC50 reported for Nc1nnc(-c2ccccc2O)cc1N1CCC(NC(=O)CN2CCC(c3ccc(OC4CCC(=O)NC4=O)cc3)CC2)(c2ccccc2)CC1 (centres unmarked) [Example 108] = 109

GET /value?item= Nc1nnc(-c2ccccc2O)cc1N1CC2CCC(C1)N2c1cccc(OCCN2CCN(C(=O)N3CCC4(CC3)CCN(c3ccc5c(c3)C(=O)N(C3CCC(=O)NC3=O)C5=O)CC4)CC2)c1 (racemic) [Example 52] &field=DC50 returns 37

Value of measured DC50 for the entry Nc1nnc(-c2ccccc2O)cc1N1CCC(C(=O)N2CCC3(CC2)CN(C(=O)CC2CCN(c4ccc5c(c4)C(=O)N(C4CCC(=O)NC4=O)C5=O)CC2)CCO3)(c2ccccc2)CC1 (centres unmarked) [Example 168] : 111

The reported value for Nc1nnc(-c2ccccc2O)cc1N1CCC(C(=O)NCC2CCN(C(=O)CC3CCN(c4ccc5c(c4)C(=O)N(C4CCC(=O)NC4=O)C5=O)CC3)CC2)(c2ccccc2)CC1 (centres unmarked) [Example 103] in terms of DC50 is 104

The reported DC50 of the molecule Nc1nnc(-c2ccccc2O)cc1N1CCC(CNC(=O)C2CCN(c3cccc4c3C(=O)N(C3CCC(=O)NC3=O)C4=O)CC2)(c2ccccc2)CC1 (centres unmarked) [Example 71] was 326

Every entry's value here was drawn from patent US20230024096A1.
